assay: Cmax in Wistar rat lung at 750 mg/kg, po by LC-MS/MS analysis; format: ADME, organism-based; parameters: dose 750 mg/kg, route oral
Measured attribute: Cmax (ng/g)
Give bare numbers, in ng/g.

Examples with their reported Cmax follow.
Given smiles	Cmax (ng/g)
COc1cc(OC)c2c(=O)c(OC)c(-c3ccc(OC)c(OC)c3)oc2c1	2230
COc1cc(OC)c2c(=O)cc(-c3ccccc3)oc2c1	2000

So for COc1ccc(-c2cc(=O)c3c(OC)cc(OC)cc3o2)cc1 , the logged Cmax turned out to be 1410

====

experiment: Clearance in Wistar rat at 250 mg/kg, po by HPLC analysis; format: ADME, organism-based; parameters: dose 250 mg/kg, route oral; details: in vivo
Measured attribute: CL/F (mL/min)
Answers are plain numbers, in mL/min.

Consider the following illustrative entries.
Compound	CL/F (mL/min)
COc1cc(OC)c2c(=O)c(OC)c(-c3ccc(OC)c(OC)c3)oc2c1	10.4
COc1cc(OC)c2c(=O)cc(-c3ccccc3)oc2c1 [CHRYSIN DIMETHYL ETHER]	6.12

Note to self: CL/F recorded for COc1ccc(-c2cc(=O)c3c(OC)cc(OC)cc3o2)cc1 [TRIMETHYLAPIGENIN] was 5.62
